All values here come from the supplement of paper PMC10567573.

B1: TOR1AIP2 (parent)
chain: YTSSQKVSPIQIDGAGRTWQDSDT

variants of: B1; assay: protein stability index of a GFP-peptide fusion (GPS, HEK-293T) (PSI 1-6); higher = more stable; conditions: c terminus: a fixed tail appended;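 further: lentivirally expressed fusions sorted by FACS into six bins by GFP to DsRed ratio, PSI derived from sequencing read proportions per bin multiplied by bin number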
I'd appreciate it if you could supply protein stability index values for the items below.

// returns reported protein stability index for input `D21I`
2.71

// returns reported protein stability index for input `A15I`
3.25

// returns reported protein stability index for input `K6R`
3.41

// returns reported protein stability index for input `I12Q`
4.03

// returns reported protein stability index for input `D23M`
2.06

// returns reported protein stability index for input `G14T`
3.38

// returns reported protein stability index for input `Q20G`
3.08

// returns reported protein stability index for input `S8V`
2.67

// returns reported protein stability index for input `T2G`
3.91

// returns reported protein stability index for input `G16W`
1.61

// returns reported protein stability index for input `P9M`
3.12

// returns reported protein stability index for input `K6V`
3.52

// returns reported protein stability index for input `R17P`
4.25

// returns reported protein stability index for input `R17H`
2.24

// returns reported protein stability index for input `Q20I`
2.42

// returns reported protein stability index for input `P9I`
2.69

// returns reported protein stability index for input `Q20S`
3.69

// returns reported protein stability index for input `Y1R`
4.8

// returns reported protein stability index for input `I10T`
3.96

// returns reported protein stability index for input `P9T`
3.98

// returns reported protein stability index for input `Q11F`
2.06

// returns reported protein stability index for input `P9N`
3.49

// returns reported protein stability index for input `I10S`
3.93

// returns reported protein stability index for input `P9D`
3.94

// returns reported protein stability index for input `G14C`
4.45

// returns reported protein stability index for input `S8P`
3.1

// returns reported protein stability index for input `I10W`
2.4

// returns reported protein stability index for input `I12F`
3.24

// returns reported protein stability index for input `T24R`
2.95

// returns reported protein stability index for input `S3P`
2.57

// returns reported protein stability index for input `I12H`
4.21
